Biological target: B-Raf (V600E) (Homo sapiens (Human), UniProt P15056, V600E)
Sequence (P15056 whole entry V600E): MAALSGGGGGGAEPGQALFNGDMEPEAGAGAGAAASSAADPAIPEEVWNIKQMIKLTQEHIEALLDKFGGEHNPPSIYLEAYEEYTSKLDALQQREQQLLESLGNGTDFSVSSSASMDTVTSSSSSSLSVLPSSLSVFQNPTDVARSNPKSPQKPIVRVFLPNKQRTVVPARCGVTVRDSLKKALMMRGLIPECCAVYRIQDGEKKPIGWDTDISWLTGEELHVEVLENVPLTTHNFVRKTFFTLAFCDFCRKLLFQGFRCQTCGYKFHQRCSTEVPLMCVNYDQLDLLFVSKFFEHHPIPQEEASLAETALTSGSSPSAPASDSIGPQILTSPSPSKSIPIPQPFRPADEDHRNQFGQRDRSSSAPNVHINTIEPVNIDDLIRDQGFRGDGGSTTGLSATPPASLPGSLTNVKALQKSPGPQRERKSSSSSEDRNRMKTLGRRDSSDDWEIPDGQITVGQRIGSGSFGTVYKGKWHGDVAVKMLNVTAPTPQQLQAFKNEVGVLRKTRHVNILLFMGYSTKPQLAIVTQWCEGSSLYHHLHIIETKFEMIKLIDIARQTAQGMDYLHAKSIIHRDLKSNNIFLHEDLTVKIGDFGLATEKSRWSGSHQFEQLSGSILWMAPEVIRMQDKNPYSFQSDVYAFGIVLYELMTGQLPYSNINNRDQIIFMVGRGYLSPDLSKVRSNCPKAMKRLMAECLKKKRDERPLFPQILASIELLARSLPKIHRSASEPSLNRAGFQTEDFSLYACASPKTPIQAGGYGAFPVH
Assay: Raf kinase assay (B-Raf (V600E)), [33P] incorporation into MEK1(K97R)
Format: biochemical
quantity-kind: IC50 (nM)

CCCS(=O)(=O)Nc1cccc(-c2ccc3nccc(Nc4cccc5[nH]ncc45)c3c2)c1: 264
COc1cc(-c2ccc3ncnc(Nc4cccc(NS(C)(=O)=O)c4)c3c2)ccc1O: 430
COc1cccc(-c2ccc3ncnc(Nc4cccc5[nH]ncc45)c3c2)c1OC: 515
COc1cc2ncnc(Nc3cccc(O)c3)c2cc1-c1ccc(N)cc1: 76.6

* * *

Test system: COLO205
Assay: Anti-proliferative activity, CellTiter-96 assay, COLO205
Type: cell-based
Conditions: Homo sapiens, COLO 205, COLO205 cells, 72 hours incubation
pIC50: −log10 of the molar value.
pIC50 values for the compounds below.
quantity-kind: pIC50

COc1cccc(-c2ccc3nccc(Nc4cccc5[nH]ncc45)c3c2)c1F [Compound 111]: 4.49
Oc1ccc(-c2ccc3ncnc(Nc4cccc(O)c4)c3c2)cc1 [Compound 62]: 4.93
NC(=O)c1cccc(-c2ccc3ncnc(Nc4cccc5[nH]ncc45)c3c2)c1 [Compound 97]: 4.90
COc1cc(-c2cc3c(Nc4cc(O)ccc4Cl)ncnc3cc2OC)ccc1O [Compound 43]: 4.61
COc1cc(-c2ccc3ncnc(Nc4cc(O)c(Cl)cc4Cl)c3c2)ccc1O [Compound 61]: 5.13
